Readings of IC50 for the listed compounds
# Target Of Assay: human TYK2 (Homo sapiens, UniProt P29597)
# Construct: catalytic domain (amino acids 871-1187; catalog number 08-147)
# Sequence (P29597 871-1187): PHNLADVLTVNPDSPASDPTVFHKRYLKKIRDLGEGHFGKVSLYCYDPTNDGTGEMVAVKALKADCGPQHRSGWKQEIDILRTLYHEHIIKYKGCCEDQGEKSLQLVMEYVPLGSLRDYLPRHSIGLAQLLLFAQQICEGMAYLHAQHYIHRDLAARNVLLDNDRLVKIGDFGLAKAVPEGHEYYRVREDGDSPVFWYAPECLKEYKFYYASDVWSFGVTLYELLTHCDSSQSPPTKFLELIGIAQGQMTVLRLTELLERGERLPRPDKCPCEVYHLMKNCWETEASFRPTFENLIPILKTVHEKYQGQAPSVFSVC
# Test Name: TYK2 inhibition assay
# Condition Description: recombinant human TYK2 catalytic domain, polyGT substrate
Readout Label: IC50

Smiles Code	Target Of Assay	Recorded Value
CCc1cc(CN2CC(C)(C)C2)ccc1N(C)c1cc2c(cn1)ncn2C	human TYK2 (Homo sapiens, UniProt P29597)	> 1000 nM
CCc1cc(-c2cnn(CC(N)=O)c2)ccc1N(C)c1cc2c(cn1)ncn2C	human TYK2 (Homo sapiens, UniProt P29597)	0.01 to 100 nM
CCc1cc(C#N)cc(F)c1N(C)c1cc2c(cn1)ncn2C	human TYK2 (Homo sapiens, UniProt P29597)	101 to 500 nM
CCc1cc(OC)ccc1N(C)c1cc2c(cn1)ncn2C	human TYK2 (Homo sapiens, UniProt P29597)	0.01 to 100 nM
CCc1cc(-c2ccsc2)ccc1N(C)c1cc2c(cn1)ncn2C	human TYK2 (Homo sapiens, UniProt P29597)	0.01 to 100 nM

###

# System: pSTAT1(2)-luciferase reporter in HeLa cells triggered with human OSM
# Test Name: JAK-STAT signalling assay
# Type: cell-based
# Condition Description: Homo sapiens, HeLa, HeLa cells, pSTAT1(2)-luciferase reporter, human OSM 33 ng/mL; read-out: JAK-STAT IC50

Molecule	IC50
CCc1cc(-c2cnc(NC)nc2)ccc1N(C)c1cc2c(cn1)ncn2C [Compound 211]	501 to 1000 nM
CCc1cc(C2=CCN(C(=O)CC#N)CC2)ccc1N(C)c1cc2c(cn1)ncn2C [Compound 195]	501 to 1000 nM
CCc1cc(CNC(=O)CC#N)ccc1N(C)c1cc2c(cn1)ncn2C [Compound 255]	> 1000 nM
CCc1cc(-c2cncc(S(C)(=O)=O)c2)ccc1N(C)c1cc2c(cn1)ncn2C [Compound 218]	> 1000 nM
CCc1ccc(F)cc1N(C)c1cc2c(cn1)ncn2C [Compound 84]	501 to 1000 nM
CCc1cc(-c2ccsc2)ccc1N(C)c1cc2c(cn1)ncn2C [Compound 127]	1 to 500 nM
CCc1cc(CNC(=O)NC)ccc1N(C)c1cc2c(cn1)ncn2C [Compound 270]	> 1000 nM
CCc1ccc(C(=O)NC(C)(C)C)cc1N(C)c1cc2c(cn1)ncn2C [Compound 123]	> 1000 nM
CCc1cc(-c2cnn(CCN3CCCC3)c2)ccc1N(C)c1cc2c(cn1)ncn2C [Compound 219]	1 to 500 nM

###

# Tested on: BA/F3 cell line
# Test Name: BA/F3 viability assay
# Condition Description: Mus musculus, BaF3, 48 h, read-out: BA/F3 IC50

Compound	IC50
CCc1cc(C2CN(C(=O)C(F)F)C2)ncc1N(C)c1cc2c(cn1)ncn2C [Compound 333]	> 5 µM
CCc1cc(CN2CCCS2(=O)=O)ccc1N(C)c1cc2c(cn1)ncn2C [Compound 262]	1 to 5 µM
CCc1cc(CNCC(F)(F)F)ccc1N(C)c1cc2c(cn1)ncn2C [Compound 380]	1 to 5 µM
CCc1cc(C(C)O)ccc1N(C)c1cc2c(cn1)ncn2C (centres unmarked) [Compound 101]	> 5 µM
CCc1cc(C2CN(CC(F)(F)F)C2)ncc1N(C)c1cc2c(cn1)ncn2C [Compound 342]	> 5 µM
